- Tested on: Rh D antigen
- Procedure Details: titrated haemagglutination assay of dried human IgM anti-Rh D antibody
- Assay type: cell-based
- Condition Parameters: dried antibody, sugar at 5% final concentration
Test Readout: % activity retained in HA titre (%)
Lab book: enter the figure in %, no units written.

May I ask what % activity retained in HA titre has been recorded for OC[C@H]1O[C@H](O[C@H]2O[C@H](CO)[C@@H](O)[C@H](O)[C@H]2O)[C@H](O)[C@@H](O)[C@@H]1O [Trehalose, α-D-glucopyranosyl-α-D-glucopyranoside] ? 100

Fill in the blank: the reported % activity retained in HA titre of O=C[C@H](O)[C@@H](O)[C@H](O)[C@H](O)CO [glucose, reference compound] is ____. 1.2

So what's the measured % activity retained in HA titre for this one? OC[C@H]1O[C@@](CO)(O[C@H]2O[C@H](CO)[C@@H](O)[C@H](O)[C@H]2O)[C@@H](O)[C@@H]1O [sucrose, reference compound] 11.1

Can you share its % activity retained in HA titre? I mean this molecule: OC[C@H]1O[C@H](O[C@H]2[C@H](O)[C@@H](O)C(O)O[C@@H]2CO)[C@H](O)[C@@H](O)[C@@H]1O (mixture of isomers) [maltose, reference compound] 11.1

May I ask what % activity retained in HA titre has been recorded for OC[C@H]1O[C@H](OC[C@H]2O[C@H](O[C@]3(CO)O[C@H](CO)[C@@H](O)[C@@H]3O)[C@H](O)[C@@H](O)[C@@H]2O)[C@H](O)[C@@H](O)[C@H]1O [raffinose, reference compound] ? 3.7
